target: Protein kinase C theta type (Homo sapiens, UniProt Q04759); also: in the data inactive means no Kd found up to 30 µM
Sequence (Q04759 whole entry): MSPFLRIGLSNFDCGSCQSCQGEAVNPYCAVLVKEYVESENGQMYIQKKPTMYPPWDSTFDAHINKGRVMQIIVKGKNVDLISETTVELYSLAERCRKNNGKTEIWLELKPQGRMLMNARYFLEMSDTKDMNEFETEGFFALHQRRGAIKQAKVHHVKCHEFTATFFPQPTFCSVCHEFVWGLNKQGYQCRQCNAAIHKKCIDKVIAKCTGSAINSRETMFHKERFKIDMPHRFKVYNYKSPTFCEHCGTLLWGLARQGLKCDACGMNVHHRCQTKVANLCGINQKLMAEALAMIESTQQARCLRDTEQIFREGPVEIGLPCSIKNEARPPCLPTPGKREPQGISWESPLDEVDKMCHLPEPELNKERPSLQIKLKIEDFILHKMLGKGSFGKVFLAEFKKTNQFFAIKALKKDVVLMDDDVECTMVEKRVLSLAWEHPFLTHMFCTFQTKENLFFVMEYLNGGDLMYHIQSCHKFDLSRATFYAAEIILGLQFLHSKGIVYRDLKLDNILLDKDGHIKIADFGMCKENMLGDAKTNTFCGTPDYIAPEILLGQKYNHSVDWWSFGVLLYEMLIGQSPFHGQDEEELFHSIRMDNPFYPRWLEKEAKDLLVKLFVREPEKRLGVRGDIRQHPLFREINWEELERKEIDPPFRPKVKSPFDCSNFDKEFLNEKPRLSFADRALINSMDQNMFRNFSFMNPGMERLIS
The source made the active and inactive calls.
Labels: label 1 (active), label 0 (inactive)

{"Entry Smiles": "Cc1cc(Nc2ncc(Cl)c(Nc3ccccc3S(=O)(=O)C(C)C)n2)c(OC(C)C)cc1C1CCNCC1", "Label": "label 0"}
{"Entry Smiles": "FC(F)(F)c1ccc(/C=C/c2nc(COc3ccc(CCCCn4ccnn4)cc3)co2)cc1", "Label": "label 0"}
{"Entry Smiles": "CO[C@H]1C[C@@H]2CC[C@@H](C)[C@@](O)(O2)C(=O)C(=O)N2CCCC[C@H]2C(=O)O[C@H]([C@H](C)C[C@@H]2CC[C@@H](O)[C@H](OC)C2)CC(=O)[C@H](C)/C=C(\\C)[C@@H](O)[C@@H](OC)C(=O)[C@H](C)C[C@H](C)/C=C/C=C/C=C/1C", "Label": "label 0"}
{"Entry Smiles": "CN1CCN(CCOc2cc(OC3CCOCC3)c3c(Nc4c(Cl)ccc5c4OCO5)ncnc3c2)CC1", "Label": "label 0"}
{"Entry Smiles": "N#CC1(c2ccc(NC(=O)c3cccnc3NCc3ccncc3)cc2)CCCC1", "Label": "label 0"}
{"Entry Smiles": "COc1ccc(S(=O)(=O)N(C(C)=O)c2ccccc2/C=C/c2cc[n+]([O-])cc2)cc1", "Label": "label 0"}
{"Entry Smiles": "COc1c(OCCCN2CCOCC2)ccc2c1N=C(NC(=O)c1cnc(N)nc1)N1CCN=C21", "Label": "label 0"}
{"Entry Smiles": "COc1ncc(-c2ccc3nccc(-c4ccnnc4)c3c2)cc1NS(=O)(=O)c1ccc(F)cc1F", "Label": "label 0"}
{"Entry Smiles": "Cc1nc(Nc2n[nH]c3c2CN(C(=O)N[C@H](CN(C)C)c2ccccc2)C3(C)C)c2sccc2n1", "Label": "label 1"}

###

molecular target: UniProtKB O76039
Sequence (O76039 whole entry): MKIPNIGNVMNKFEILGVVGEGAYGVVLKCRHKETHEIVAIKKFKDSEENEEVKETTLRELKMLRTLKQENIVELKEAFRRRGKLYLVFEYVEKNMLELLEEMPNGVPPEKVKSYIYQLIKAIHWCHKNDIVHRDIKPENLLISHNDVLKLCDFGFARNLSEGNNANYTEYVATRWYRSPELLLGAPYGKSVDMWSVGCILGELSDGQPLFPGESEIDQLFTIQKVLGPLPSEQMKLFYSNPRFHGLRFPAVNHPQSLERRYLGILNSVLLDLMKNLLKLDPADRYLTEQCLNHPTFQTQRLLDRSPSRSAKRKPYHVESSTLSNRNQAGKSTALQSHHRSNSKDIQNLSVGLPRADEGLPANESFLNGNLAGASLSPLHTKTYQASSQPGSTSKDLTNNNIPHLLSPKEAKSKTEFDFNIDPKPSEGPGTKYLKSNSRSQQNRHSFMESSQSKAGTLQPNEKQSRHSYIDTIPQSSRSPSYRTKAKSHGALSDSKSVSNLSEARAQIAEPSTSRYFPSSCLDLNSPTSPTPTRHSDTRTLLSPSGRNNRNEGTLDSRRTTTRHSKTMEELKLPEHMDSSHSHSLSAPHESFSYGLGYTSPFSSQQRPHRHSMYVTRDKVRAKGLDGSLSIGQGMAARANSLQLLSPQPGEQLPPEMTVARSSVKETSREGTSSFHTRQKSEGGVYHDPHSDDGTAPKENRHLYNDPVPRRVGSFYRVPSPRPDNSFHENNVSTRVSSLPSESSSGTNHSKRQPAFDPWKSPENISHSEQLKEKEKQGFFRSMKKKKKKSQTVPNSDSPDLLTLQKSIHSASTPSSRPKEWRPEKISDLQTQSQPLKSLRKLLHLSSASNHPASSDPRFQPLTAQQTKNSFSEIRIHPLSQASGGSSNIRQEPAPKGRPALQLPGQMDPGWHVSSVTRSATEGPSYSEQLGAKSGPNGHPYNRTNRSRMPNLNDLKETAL
The source made the active and inactive calls.
Labels: 1 for active, -1 for inactive

{"Molecule": "CCNC(=O)C#Cc1ccc2c(c1)NC(=O)/C2=C(\\Nc1ccc(CN(C)C)cc1)c1ccccc1", "Label": 1}
{"Molecule": "C=CC(=O)Nc1cc2c(Nc3ccc(F)c(Cl)c3)ncnc2cc1C#CC(C)(C)N1CCN(C)CC1 [AV-412 FREE BASE]", "Label": -1}
{"Molecule": "C=CC(=O)N1CCC[C@H](n2c(=O)n(-c3ccc(Oc4ccccc4)cc3)c3c(N)ncnc32)C1", "Label": -1}
{"Molecule": "Cc1cnc(NC(=O)Nc2cc(Br)c(C)cc2OC[C@@H]2CNCCO2)cn1", "Label": -1}
{"Molecule": "COCc1c(-c2ccc(NC(=O)Nc3cc(C(F)(F)F)ccc3F)c(F)c2)c2c(N)ncnn2c1CN1CCOCC1", "Label": -1}
{"Molecule": "CN1C/C=C/CCOc2cccc(c2)-c2ccnc(n2)Nc2cccc(c2)C1", "Label": -1}
{"Molecule": "Cc1cc(Nc2ncnc3ccc(NC4=NC(C)(C)CO4)cc23)ccc1Oc1ccn2ncnc2c1", "Label": -1}
{"Molecule": "CCn1c(C(=O)N(C2CC2)C2CC2)cc2c3c(ncn3C)c(Nc3cc(C)n(C)n3)nc21", "Label": -1}
{"Molecule": "O=C(Nc1cc(C(F)(F)F)cc(C(F)(F)F)c1)c1cc(Cl)ccc1O", "Label": -1}
{"Molecule": "CCn1cc(-c2ccnc3[nH]c(-c4cccc(CN(C)C)c4)cc23)c(-c2ccc(NC(=O)N(C)C)cc2)n1", "Label": -1}
{"Molecule": "Cc1cc(C(=O)NOCCO)c(Nc2ccc(I)cc2F)n(C)c1=O", "Label": -1}
{"Molecule": "C[C@H]1CNCCCN1S(=O)(=O)c1cccc2cncc(F)c12", "Label": -1}
{"Molecule": "C#Cc1cccc(Nc2ncnc3cc(OC)c(OCCCCCCC(=O)NO)cc23)c1", "Label": -1}
{"Molecule": "C[C@@H](N)c1ccc(C(=O)Nc2ccnc3[nH]ccc23)cc1", "Label": -1}
{"Molecule": "COc1c(OCCCN2CCOCC2)ccc2c1N=C(NC(=O)c1cnc(N)nc1)N1CCN=C21", "Label": -1}
{"Molecule": "CC(C)c1cc(CNc2nc(Nc3cc(C4CC4)[nH]n3)cc(N3CCN(C)CC3)n2)on1", "Label": -1}
{"Molecule": "CNC(=O)c1cccc2cc(Oc3ccnc4cc(OCC5(N)CC5)c(OC)cc34)ccc12", "Label": -1}
{"Molecule": "COc1ccc(S(=O)(=O)N(C(C)=O)c2ccccc2/C=C/c2cc[n+]([O-])cc2)cc1", "Label": -1}
{"Molecule": "O=C(Nc1c[nH]nc1-c1nc2cc(CN3CCOCC3)ccc2[nH]1)NC1CC1", "Label": -1}
{"Molecule": "CO[C@H]1C[C@@H]2CC[C@@H](C)[C@@](O)(O2)C(=O)C(=O)N2CCCC[C@H]2C(=O)O[C@H]([C@H](C)C[C@@H]2CC[C@@H](OC(=O)C(C)(CO)CO)[C@H](OC)C2)CC(=O)[C@H](C)/C=C(\\C)[C@@H](O)[C@@H](OC)C(=O)[C@H](C)C[C@H](C)/C=C/C=C/C=C/1C", "Label": -1}
{"Molecule": "Cc1[nH]c(/C=C2\\C(=O)Nc3ccccc32)c(C)c1CCC(=O)O [ORANTINIB]", "Label": -1}
{"Molecule": "NC(=O)c1c(OCc2c(F)cc(Br)cc2F)nsc1NC(=O)NCCCCN1CCCC1", "Label": -1}
{"Molecule": "Cc1nc(Nc2n[nH]c3c2CN(C(=O)N[C@H](CN(C)C)c2ccccc2)C3(C)C)c2sccc2n1", "Label": 1}
{"Molecule": "CNC(=O)c1nn(C)c2c1C(C)(C)Cc1cnc(Nc3ccc(N4CCN(C)CC4)cc3)nc1-2", "Label": -1}
{"Molecule": "FC(F)(F)c1ccc(/C=C/c2nc(COc3ccc(CCCCn4ccnn4)cc3)co2)cc1", "Label": -1}
{"Molecule": "Cc1nc2cc(-c3nn(C(C)C)c4ncnc(N)c34)ccc2o1", "Label": -1}
{"Molecule": "Cc1nc2cc(-n3ncc(C(=O)c4cc5ccccc5[nH]4)c3N)ccc2[nH]1", "Label": -1}
{"Molecule": "N#CC1(c2ccc(NC(=O)c3cccnc3NCc3ccncc3)cc2)CCCC1", "Label": -1}
{"Molecule": "O=c1[nH]ccc2cc(OC3CCNCC3)ccc12 [SAR-407899 FREE BASE]", "Label": -1}

###

target: Citron Rho-interacting kinase (Homo sapiens); also: in the data inactive means no Kd found up to 30 µM
Sequence (O14578 whole entry): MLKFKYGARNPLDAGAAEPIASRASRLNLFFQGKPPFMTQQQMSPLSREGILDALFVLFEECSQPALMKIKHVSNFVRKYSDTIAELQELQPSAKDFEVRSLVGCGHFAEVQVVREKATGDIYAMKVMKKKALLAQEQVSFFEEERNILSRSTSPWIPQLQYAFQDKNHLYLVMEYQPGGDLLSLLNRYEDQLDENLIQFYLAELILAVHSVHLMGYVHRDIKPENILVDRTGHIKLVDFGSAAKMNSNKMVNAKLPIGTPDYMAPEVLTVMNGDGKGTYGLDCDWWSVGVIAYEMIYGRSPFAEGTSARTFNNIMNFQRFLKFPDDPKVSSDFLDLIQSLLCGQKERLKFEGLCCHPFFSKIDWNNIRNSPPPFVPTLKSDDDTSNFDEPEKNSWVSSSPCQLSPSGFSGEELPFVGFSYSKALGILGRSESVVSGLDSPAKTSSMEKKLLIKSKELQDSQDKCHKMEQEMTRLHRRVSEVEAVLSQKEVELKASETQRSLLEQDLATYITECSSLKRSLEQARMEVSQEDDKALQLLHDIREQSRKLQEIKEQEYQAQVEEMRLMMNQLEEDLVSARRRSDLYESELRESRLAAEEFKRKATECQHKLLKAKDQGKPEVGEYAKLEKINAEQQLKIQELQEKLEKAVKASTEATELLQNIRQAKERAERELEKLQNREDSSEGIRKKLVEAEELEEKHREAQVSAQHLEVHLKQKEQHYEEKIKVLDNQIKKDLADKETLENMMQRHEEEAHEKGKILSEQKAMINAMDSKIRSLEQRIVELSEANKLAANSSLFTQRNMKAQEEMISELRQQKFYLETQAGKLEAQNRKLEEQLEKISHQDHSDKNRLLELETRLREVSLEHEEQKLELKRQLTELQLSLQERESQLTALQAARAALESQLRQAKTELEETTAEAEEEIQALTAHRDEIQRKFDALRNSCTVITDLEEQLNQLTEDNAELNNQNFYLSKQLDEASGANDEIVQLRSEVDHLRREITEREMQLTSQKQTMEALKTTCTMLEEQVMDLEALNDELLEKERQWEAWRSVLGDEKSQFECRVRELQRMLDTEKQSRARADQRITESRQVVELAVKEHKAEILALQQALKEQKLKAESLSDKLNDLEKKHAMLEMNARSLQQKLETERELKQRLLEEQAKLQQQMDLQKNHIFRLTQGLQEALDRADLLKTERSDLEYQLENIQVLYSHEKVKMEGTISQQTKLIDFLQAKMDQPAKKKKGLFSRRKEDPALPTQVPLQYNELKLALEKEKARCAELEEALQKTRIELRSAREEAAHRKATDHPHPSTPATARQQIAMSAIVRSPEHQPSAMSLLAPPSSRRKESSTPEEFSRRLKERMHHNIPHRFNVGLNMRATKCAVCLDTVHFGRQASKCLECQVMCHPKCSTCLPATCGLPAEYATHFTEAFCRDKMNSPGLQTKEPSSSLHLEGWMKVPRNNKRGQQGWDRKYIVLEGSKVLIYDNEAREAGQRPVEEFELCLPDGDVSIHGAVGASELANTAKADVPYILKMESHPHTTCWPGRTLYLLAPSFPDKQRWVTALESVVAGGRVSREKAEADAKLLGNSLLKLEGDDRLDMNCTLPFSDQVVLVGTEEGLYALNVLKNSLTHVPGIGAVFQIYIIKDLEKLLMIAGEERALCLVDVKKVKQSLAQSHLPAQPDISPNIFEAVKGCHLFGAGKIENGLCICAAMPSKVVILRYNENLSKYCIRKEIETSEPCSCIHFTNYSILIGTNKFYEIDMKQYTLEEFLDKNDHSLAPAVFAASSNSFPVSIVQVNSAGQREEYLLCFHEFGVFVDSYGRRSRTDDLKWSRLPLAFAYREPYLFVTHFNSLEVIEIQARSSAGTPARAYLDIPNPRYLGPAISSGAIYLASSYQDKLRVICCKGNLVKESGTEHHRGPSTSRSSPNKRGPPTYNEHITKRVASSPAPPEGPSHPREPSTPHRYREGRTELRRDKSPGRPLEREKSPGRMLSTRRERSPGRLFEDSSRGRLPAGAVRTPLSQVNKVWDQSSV
Where a name gives a salt, the structure may show the parent alone. Calls of active or inactive are those of the source.
Reported Endpoint: Kd

{"Compound": "CCNC(=O)C#Cc1ccc2c(c1)NC(=O)/C2=C(\\Nc1ccc(CN(C)C)cc1)c1ccccc1", "Test Result": "> 30 µM (inactive)"}
{"Compound": "FC(F)(F)c1ccc(/C=C/c2nc(COc3ccc(CCCCn4ccnn4)cc3)co2)cc1", "Test Result": "> 30 µM (inactive)"}
{"Compound": "Cc1nc2cc(-n3ncc(C(=O)c4cc5ccccc5[nH]4)c3N)ccc2[nH]1", "Test Result": "> 30 µM (inactive)"}
{"Compound": "COc1ccc(S(=O)(=O)N(C(C)=O)c2ccccc2/C=C/c2cc[n+]([O-])cc2)cc1", "Test Result": "> 30 µM (inactive)"}
{"Compound": "O=C(Nc1c[nH]nc1-c1nc2cc(CN3CCOCC3)ccc2[nH]1)NC1CC1", "Test Result": "> 30 µM (inactive)"}
{"Compound": "Nc1ncnc2c1c(-c1cccc(OCc3ccccc3)c1)cn2[C@H]1C[C@@H](CN2CCC2)C1", "Test Result": "> 30 µM (inactive)"}
{"Compound": "CCn1c(C(=O)N(C2CC2)C2CC2)cc2c3c(ncn3C)c(Nc3cc(C)n(C)n3)nc21", "Test Result": "> 30 µM (inactive)"}
{"Compound": "CCS(=O)(=O)N1CCN(c2ccc(Nc3ncc(C(N)=O)c(NC4CC4)n3)cc2)CC1 [Cerdulatinib Hydrochloride]", "Test Result": "> 30 µM (inactive)"}
{"Compound": "C[C@@H](Oc1cc(C(=O)Nc2ccc(C(=O)N3CCN(C)CC3)cc2)nnc1N)c1c(Cl)ccc(F)c1Cl", "Test Result": "> 30 µM (inactive)"}
{"Compound": "CC(C)c1cc(CNc2nc(Nc3cc(C4CC4)[nH]n3)cc(N3CCN(C)CC3)n2)on1", "Test Result": "> 30 µM (inactive)"}
{"Compound": "Cc1nc(Nc2n[nH]c3c2CN(C(=O)N[C@H](CN(C)C)c2ccccc2)C3(C)C)c2sccc2n1", "Test Result": "> 30 µM (inactive)"}
{"Compound": "CCOc1cc2ncc(C#N)c(Nc3ccc(F)c(Cl)c3)c2cc1NC(=O)/C=C/CN(C)C", "Test Result": "> 30 µM (inactive)"}
{"Compound": "CO[C@H]1C[C@@H]2CC[C@@H](C)[C@@](O)(O2)C(=O)C(=O)N2CCCC[C@H]2C(=O)O[C@H]([C@H](C)C[C@@H]2CC[C@@H](O)[C@H](OC)C2)CC(=O)[C@H](C)/C=C(\\C)[C@@H](O)[C@@H](OC)C(=O)[C@H](C)C[C@H](C)/C=C/C=C/C=C/1C", "Test Result": "> 30 µM (inactive)"}
{"Compound": "CCCCCCCCCCCCCCCCCCOP(=O)([O-])OC1CC[N+](C)(C)CC1", "Test Result": "> 30 µM (inactive)"}
{"Compound": "COCC(=O)NC/C=C/c1ccc2ncnc(Nc3ccc(Oc4ccc(C)nc4)c(C)c3)c2c1", "Test Result": "> 30 µM (inactive)"}
{"Compound": "CNC(=O)c1cc(Oc2ccc(NC(=O)Nc3cc(C(C)(C)C)nn3-c3ccc4ncccc4c3)c(F)c2)ccn1", "Test Result": "> 30 µM (inactive)"}
{"Compound": "Cc1nc2cc(-c3nn(C(C)C)c4ncnc(N)c34)ccc2o1", "Test Result": "> 30 µM (inactive)"}
{"Compound": "COCc1c(-c2ccc(NC(=O)Nc3cc(C(F)(F)F)ccc3F)c(F)c2)c2c(N)ncnn2c1CN1CCOCC1", "Test Result": "> 30 µM (inactive)"}
{"Compound": "COc1cc2c(Nc3ccc(Cl)c(Cl)c3F)ncnc2cc1OC[C@@H]1C[C@@H]2CN(C)C[C@@H]2C1", "Test Result": "> 30 µM (inactive)"}
{"Compound": "C#Cc1cccc(Nc2ncnc3cc(OC)c(OCCCCCCC(=O)NO)cc23)c1", "Test Result": "> 30 µM (inactive)"}
{"Compound": "C[C@@H](NC(=O)c1ncnc(N)c1Cl)c1ncc(C(=O)Nc2cc(C(F)(F)F)c(Cl)cn2)s1", "Test Result": "> 30 µM (inactive)"}
{"Compound": "CNC(=O)c1cccc2cc(Oc3ccnc4cc(OCC5(N)CC5)c(OC)cc34)ccc12", "Test Result": "> 30 µM (inactive)"}
{"Compound": "CCS(=O)(=O)c1cccc(-c2cc(C(=O)NC3CCN(C)CC3)c(C)c3[nH]c4ncc(C)cc4c23)c1", "Test Result": "> 30 µM (inactive)"}
{"Compound": "COc1c(OCCCN2CCOCC2)ccc2c1N=C(NC(=O)c1cnc(N)nc1)N1CCN=C21", "Test Result": "> 30 µM (inactive)"}
{"Compound": "Cc1[nH]c(/C=C2\\C(=O)Nc3ccccc32)c(C)c1CCC(=O)O [ORANTINIB]", "Test Result": "> 30 µM (inactive)"}
{"Compound": "CN1CCN(CCOc2cc(OC3CCOCC3)c3c(Nc4c(Cl)ccc5c4OCO5)ncnc3c2)CC1", "Test Result": "> 30 µM (inactive)"}
{"Compound": "Cc1cc(C(=O)NOCCO)c(Nc2ccc(I)cc2F)n(C)c1=O", "Test Result": "> 30 µM (inactive)"}
{"Compound": "CC(C)(C)c1nc(-c2cccc(NS(=O)(=O)c3c(F)cccc3F)c2F)c(-c2ccnc(N)n2)s1", "Test Result": "> 30 µM (inactive)"}
{"Compound": "Cn1cc(-c2cnc3ccc4ccc(CS(=O)(=O)NCc5ccccn5)cc4c(=O)c3c2)cn1", "Test Result": "> 30 µM (inactive)"}
{"Compound": "Cc1csc(-c2nnc(Nc3ccc(Oc4ncccc4-c4ccnc(N)n4)cc3)c3ccccc23)c1", "Test Result": "> 30 µM (inactive)"}
{"Compound": "Cc1cnc(NC(=O)Nc2cc(Br)c(C)cc2OC[C@@H]2CNCCO2)cn1", "Test Result": "> 30 µM (inactive)"}
